# Test system: OVCAR-8 ovarian
# assay.comment: NCI tumour cell line growth inhibition, 48 h

# compound, TGI
measured = [
    ("O=C(OCC(OC(=O)c1ccccc1)C(OC(=O)c1ccccc1)C(OC(=O)c1ccccc1)c1cnn(-c2ccccc2)n1)c1ccccc1 (centres undefined)", "> 100 µM"),
    ("Cc1ccc(Nc2nnc(-c3ccc4c(c3)OCO4)o2)c(C)c1", "> 100 µM"),
    ("O=C(O)CSc1n[nH]c(Cc2ccccc2)n1", "> 100 µM"),
    ("Cc1cccc(N=C2NC(=O)C(CC(=O)Nc3cccc(C)c3C)S2)c1 (centres undefined)", "> 100 µM"),
    ("CC1=C(C(=O)NNS(=O)(=O)c2ccc(C)cc2)CC(C(=O)NNS(=O)(=O)c2ccc(C)cc2)=C(C)N1", "> 100 µM"),
    ("COc1cc(C(=O)C/C(CCC(=O)Nc2ccc(Cl)cc2Cl)=N/NC(=O)C(=O)NN)ccc1O", "> 100 µM"),
    ("O=[N+]([O-])c1ccc(C2=Nc3ccccc3SC(c3ccccc3)C2)cc1 (centres undefined)", "40.3 µM"),
    ("COc1c(O)c(O)cc2c1-c1ccc(OC)c(=O)cc1C(NC(C)=O)CC2 (centres undefined)", "62.2 µM"),
    ("C=C(C)[C@@]1(O[Si](C)(C)C)CCCC[C@@H]1CC(Sc1ccccc1)Sc1ccccc1", "31.7 µM"),
    ("COC(=O)c1cc(C)ccc1CC(Cc1ccc(C)cc1)C(=O)OC (centres undefined)", "> 100 µM"),
    ("COc1cc2c(cc1OC)C13CC[N+]4(C)CC5=CCOC6CC(=O)N2C1C6C5CC34[O-] (centres undefined)", "> 100 µM"),
    ("CCC(=O)Nc1ccc(N=NN(C)C)cc1", "> 100 µM"),
    ("CCN(CC)CCNc1ccc2ncn3c4cc(OC)c(OC)c(=O)c4c(O)c1c23", "27.9 µM"),
    ("Cc1cc2nc(-c3cc(C(C)(C)C)c(O)c(C(C)(C)C)c3)[nH]c2cc1C", "> 52.8 µM"),
    ("CC(C)(C)C(=O)C(Cc1ccccc1)C(=O)C(C)(C)C", "> 100 µM"),
    ("Cc1nn(C(=O)c2ccc(Cl)cc2)c2c1C(c1ccc(O)cc1)SC(N)=N2 (centres undefined)", "> 10 µM"),
    ("O=C1CCCc2cc3c(cc21)CC1(C3)Cc2ccc3c(c2C1)C(=O)CCC3 (centres undefined)", "> 100 µM"),
    ("Cc1ccc(S(=O)(=O)NC(=O)NC2=NC(C)(C)N(c3ccc(Cl)c(Cl)c3)C(N)=N2)cc1", "> 100 µM"),
    ("Cn1ccnc1Sc1ccc(C=Nc2ccc3nc(SCC(=O)NC4CCCCC4)sc3c2)cc1[N+](=O)[O-]", "> 100 µM"),
    ("Nc1nc(N)nc(CCCc2nc(N)nc(N)n2)n1", "> 100 µM"),
    ("COc1ccc(-c2csc(NC(=O)CSc3nc(C)c(-c4ccccc4)n3Nc3ccccc3)n2)cc1", "> 100 µM"),
    ("COC(=O)C1=C(C)NC(C)=C([N+](=O)[O-])C1c1cccc(N=O)c1 (centres undefined)", "32.1 µM"),
    ("CC(=O)OCCOCNC(=S)N/N=C/c1ccc(Br)s1", "> 100 µM"),
    ("COC(=O)[C@H](C)NC(=O)[C@H](CSC)N1C(=O)N[C@@H](C(C)C)C1=O", "> 100 µM"),
    ("Nc1ccccc1SC1CC(=O)N(c2ccc(Cl)c(Cl)c2)C1=O (centres undefined)", "77.8 µM"),
    ("CC(C)(C)c1ccc(OCC(=O)O)c(Cl)c1", "> 100 µM"),
    ("O=C(O)CN(c1ccccc1)S(=O)(=O)c1ccc([N+](=O)[O-])cc1", "> 100 µM"),
    ("Cc1c(C#N)c(N)n(C2OCC(O)C(O)C2O)c(=S)c1C#N (centres undefined)", "> 100 µM"),
    ("CC1CN1c1c(C(=O)/C=C/c2ccc(Cl)cc2)c(-c2ccccc2)nn(C)c1=O (centres undefined)", "5.67 µM"),
    ("COc1cc2c(c(O)c1O)-c1ccc(OC)c(=O)cc1C(NC(C)=O)CC2 (centres undefined)", "> 100 µM"),
    ("CCCCC#CS(=O)(=O)C(F)(F)F", "> 100 µM"),
    ("OCC(O)C(O)C(O)/C=N/Nc1nc(O)c(/C=C2\\C=Nc3ccccc32)[nH]1 (centres undefined)", "> 100 µM"),
    ("COC(=O)C1(Cc2ccc3c(c2)CCC3)Cc2cc3c(cc2C1)CCC3", "> 100 µM"),
    ("O=C(c1ccccc1)N1C(=S)N=C(Nc2ccccc2)C1=Nc1ccccc1", "> 100 µM"),
    ("Cc1cc(C(C)(C)C)cc(Cc2cc(C(C)(C)C)cc(Cc3cc(C(C)(C)C)cc(C)c3O)c2O)c1O", "17.6 µM"),
    ("S=C1SC2=Nc3ccccc3CN2C2=NCCN12", "> 100 µM"),
    ("CCCCCCCCCCN1CCC(N2CCCCC2)CC1", "14 µM"),
    ("CC/C=C/C/C=C/C/C=C/C/C=C/C/C=C/C/C=C/CCC(=O)Nc1ccn([C@@H]2O[C@H](CO)[C@@H](O)C2(F)F)c(=O)n1", "9.55 µM"),
    ("O=[N+]([O-])c1ccc(CSCc2ccc(Cl)cc2)cc1", "> 100 µM"),
    ("O=c1[nH]c(=O)n([C@H]2CCCO2)cc1F", "> 5000 µM"),
    ("O=C1c2cccc(NCCNCCO)c2C(=O)c2cccc(NCCNCCO)c21", "5.97 µM"),
    ("CC1C(c2ccc3c(c2)OCO3)c2cc3c(cc2OC1N1CCOCC1)OCO3 (centres undefined)", "> 100 µM"),
    ("COCOc1ccc(C2(O)Oc3cc(OCOC)ccc3C2C)c(O)c1 (centres undefined)", "32 µM"),
    ("Cc1cn2c(C)csc2c1P(=O)(OC(C)C)OC(C)C", "> 100 µM"),
]
